System: MS2 coat protein
method summary: apparent KD of MS2 coat protein; higher = weaker reporter binding
measurement context: Eterna round: R107; input ligand: tryptophan 2.4 mM
Would you please tag the item 1 when its apparent KD of MS2 coat protein is 20 nM or above, and 0 when it is below?

q: Please tell me: is the sequence ACGACGCAUACAGAUACCAGUAGCCGAGAAACAUGAGGAUCACCCAUGUCGAGCGACAACUGCCCUUGGCAGCUGUAUGCGUCAG [SSTheo B #12] at or over 20 nM in terms of apparent KD of MS2 coat protein?
a: 0

q: Please tell me: is the sequence AGACUGUCUUCGGACAGUCCGGACAGCCCGCGAGGACCGGUACGGCCGCCACUCGCGUGAGGAUCACCCAUGCGAGGCUGUCCGA [Omei Tryp A Exc A v1] at or over 20 nM in terms of apparent KD of MS2 coat protein?
a: 1

q: Please tell me: is the sequence GCGGUGGGUCAAAAGUAAUAGAAUUCUGAAGGAGCGUGAUGAAACACAGGUAGGUCGCAGGAACAUGAGGAUCACCCAUGUACGG [Same State Arginine A GF21] at or over 20 nM in terms of apparent KD of MS2 coat protein?
a: 1

q: Please tell me: is the sequence AUACAUGAGGAUCACCCAUGUUAUAGUGAAGGAGCGACAUUUAGGUCAGGUAGGUCGCACUAUUGAAUUAUUAUCCUCUUUUCUU [JR_ExcArginiA_Sub021] at or over 20 nM in terms of apparent KD of MS2 coat protein?
a: 1

q: Please tell me: is the sequence GACUAUAUGAUAUGUCAGAAAUCCUCGAAACGAGGACCGGUACGGCCGCCACUCGAGUGAUCAACAUGAGGAUCACCCAUGUAAA [Tryp A Ex t1] at or over 20 nM in terms of apparent KD of MS2 coat protein?
a: 1

q: Please tell me: is the sequence GGAUAGGACAGAAGGAGCGUGAGAUGCAUACCUUCAUUCCUCACAUGAGGAUCACCCAUGUCACAGGUAGGUCGCUGUCCUAUCG [#20 Exclusion - Arginine B] at or over 20 nM in terms of apparent KD of MS2 coat protein?
a: 1

q: Please tell me: is the sequence AUAACAUGAGGAUCACCCAUGUAAGCUGAAGGAGCGGACGAAAGUCCAGGUAGGUCGCAGCGCUCCUUCACCUCAUGAGAAGGAG [(M1)-(M2)-(Arg1)-(Arg2)-(A)'-(M)'-(A)''_Design2] at or over 20 nM in terms of apparent KD of MS2 coat protein?
a: 1

q: Please tell me: is the sequence CGUGUCGUAACUGAUACCAGUGUACUGACAUGAGGAUCACCCAUGUUGGGUUUUGUUGUACACCCUUGGCAGCAGAAUCGAUACG [AstrosExyTheB#7] at or over 20 nM in terms of apparent KD of MS2 coat protein?
a: 1

q: Please tell me: is the sequence AUCGCACCUGGUGAUACCAGCGUUUGCUCGCGACAUGAGGAUCACCCAUGUGGCCAGUGAUGCCCUUGGCAGCAUGGUCGGUGCA [Same State - Theophylline B (Freestyle 27)] at or over 20 nM in terms of apparent KD of MS2 coat protein?
a: 1

q: Please tell me: is the sequence ACACAUGACAGAAGGAGCGGAAUGAACACACAUGAGGAUCACCCAUGUUUUUUUUGUGUUUUCCAGGUAGGUCGCUGACAUGAGG [#20 Same State - Arginine B] at or over 20 nM in terms of apparent KD of MS2 coat protein?
a: 0

q: Please tell me: is the sequence GCUGGGUGCGCAAGGACCUGGCGUUGCGAUACCAGCACGGUAACGUGCCCUUGGCAGCGCACAUGAGGAUCACCCAUGUGGUGUU [#1 Exclusion - Theophylline A Attempt #19 (HarryS)] at or over 20 nM in terms of apparent KD of MS2 coat protein?
a: 1

Recorded values, source the supplement of paper PMC9170038.
